TESTED_ON: Melanocortin receptor 3 (Homo sapiens, UniProt P41968)
Sequence (P41968 whole entry): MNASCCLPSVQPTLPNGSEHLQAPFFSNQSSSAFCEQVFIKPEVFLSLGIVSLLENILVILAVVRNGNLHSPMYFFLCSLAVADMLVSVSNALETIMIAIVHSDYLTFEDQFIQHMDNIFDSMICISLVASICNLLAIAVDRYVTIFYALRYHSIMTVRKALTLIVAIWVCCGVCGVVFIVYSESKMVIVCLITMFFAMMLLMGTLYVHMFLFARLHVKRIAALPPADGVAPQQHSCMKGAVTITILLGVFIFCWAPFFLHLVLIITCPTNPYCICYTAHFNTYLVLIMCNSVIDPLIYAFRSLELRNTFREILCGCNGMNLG
EXPERIMENT_NOTES: Effective concentration towards human melanocortin-3 receptor mediated cAMP accumulation in CHO cells
Please provide measured EC50 for the entries that follow.
Give just the number in nM; leave the unit off.

Input: Give the measured EC50 of CN1CCN[C@H](C(=O)N[C@H](Cc2ccc(F)cc2)C(=O)N2CCC(C(=O)NC(C)(C)C)(C3CCCCC3)CC2)C1 .
Output: 990

Input: Could you share which EC50 value was measured for CN1CCNC[C@H]1C(=O)N[C@H](Cc1ccc(F)cc1)C(=O)N1CCC(C(=O)NC(C)(C)C)(C2CCCCC2)CC1 ?
Output: 2900

====

EXPERIMENT_NOTES: Half life at 0.5 mg/kg intravenous administration and 2 mg/kg peroral administration
Assay type: ADME, organism-based, Canis lupus familiaris
APPLIED_CONDITIONS: dog, in vivo
PARAMETER_MEASURED: half-life (h)
Quick reminder: number only, in h, skip the unit.

Input: Please look up its half-life: CN1CCN[C@H](C(=O)N[C@H](Cc2ccc(F)cc2)C(=O)N2CCC(C(=O)NC(C)(C)C)(C3CCCCC3)CC2)C1
Output: 4.1

====

TESTED_ON: Melanocortin receptor 3 (Homo sapiens, UniProt P41968)
EXPERIMENT_NOTES: Concentration of compound at 50% maximum cAMP accumulation at human melanocortin-3 receptor
Format: functional
Would you mind telling me the reported cAMP accumulation of each entry?
Output spec: scalar in %, unitless text.

Input: Sample CCN1CCN[C@H](C(=O)N[C@H](Cc2ccc(F)cc2)C(=O)N2CCC(C(=O)NC(C)(C)C)(C3CCCCC3)CC2)C1 — what was its cAMP accumulation?
Output: 3

Input: # get_value(readout='cAMP accumulation', item= CC(C)(C)NC(=O)C1(C2CCCCC2)CCN(C(=O)[C@@H](Cc2ccc(F)cc2)NC(=O)[C@@H]2CN(CC(F)F)CCN2)CC1 )
Output: 6

Input: Need cAMP accumulation, item CN1CCN[C@H](C(=O)N[C@H](Cc2ccc(F)cc2)C(=O)N2CCC(C(=O)NC(C)(C)C)(C3CCCCC3)CC2)C1
Output: 11

Input: Any idea what cAMP accumulation was measured for CC(C)CN1CCN[C@H](C(=O)N[C@H](Cc2ccc(F)cc2)C(=O)N2CCC(C(=O)NC(C)(C)C)(C3CCCCC3)CC2)C1 ?
Output: 19

Input: Name the reported cAMP accumulation value associated with the compound CN1CCNC[C@H]1C(=O)N[C@H](Cc1ccc(F)cc1)C(=O)N1CCC(C(=O)NC(C)(C)C)(C2CCCCC2)CC1
Output: 19

====

EXPERIMENT_NOTES: Percent bioavailability at 1 mg/kg intravenous administration and 2 mg/kg peroral administration
Format: ADME, organism-based
APPLIED_CONDITIONS: cercopithecidae, in vivo, po
PARAMETER_MEASURED: bioavailability (%)
Give the value, in units of %, as a plain number.

Input: Look up bioavailability for this molecule: CN1CCN[C@H](C(=O)N[C@H](Cc2ccc(F)cc2)C(=O)N2CCC(C(=O)NC(C)(C)C)(C3CCCCC3)CC2)C1
Output: 11

====

EXPERIMENT_NOTES: Maximum time taken by the compound at 1 mg/kg intravenous administration and 5 mg/kg peroral administration
Assay type: ADME, organism-based
APPLIED_CONDITIONS: rat, in vivo, po
PARAMETER_MEASURED: Tmax (h)
State the answer as a number, implicitly in h.

Input: Item CN1CCN[C@H](C(=O)N[C@H](Cc2ccc(F)cc2)C(=O)N2CCC(C(=O)NC(C)(C)C)(C3CCCCC3)CC2)C1 has what recorded Tmax?
Output: 1.54
